Test system: HPPD polypeptides
Experiment: coupled HPPD activity assay: turnover and residual turnover in crude extracts
Assay type: biochemical, Pseudomonas fluorescens
Conditions: presence of 100 μM Cmpd. 1; high substrate concentration; changes in absorbance (OD) at 320 nm
Protocol: The activity of HPPD polypeptides was determined in absence or presence of HPPD inhibitors using the coupled HPPD activity assay (FIG. 1). […] Residual turnover were determined according to Example 3 by measuring total change in signal in the presence and absence of Cmpd. […]
readoutLabel: Residual turnover
// print number alone

Task: Dear colleague, I am looking for the recorded Residual turnover of the following molecule: 63 (protein, mutant HPPD polypeptide) MADLYENPMGLMGFEFIEFASPTPGTLEPIFEIMGFTKVATHRSKNVHLYRQGEINLILNNEPNSIASYFAAEHGPSVCGMAFRVKDSQKAYNRALELGAQPIHIDTGPMELNLPAIKGIGGAPLYLIDRFGEGSSIYDIDFVYLEGVERNPVGAGLKVIDHLTHNVYRGRMVYWANFYEKLFNFREARYFDIKGEYTGLTSKAMSAPDGMIKIALNEESSKGAGQIEEFLMQFNGEGIQHVAFLTDDLVKTWDALKKIGMRFMTAPADSYYEMLEGRLPDHGEPVDQLQARGILLDGSSVEGDKRLLLQIFSETLMGPVFFEFIQRKGDDGFGPHSFKVLFEQIERDQVRRGVLTAD
Result: 0.156

Others:
Task: For the molecule 18 (protein, mutant HPPD polypeptide) MADLYENPMGLMGFEFIEFASPTPGTLEPIFEIMGFTKVATHRSKNVHLYRQGEINLILNNEPNSIASYFAAEHGPSVCGMAFRVKDSQKAYNRALELGAQPIHIDTGPMELNLPAIKGIGGAPLYLIDRFGEGSSIYDIDFVYLEGVERNPVGAGLKVIDHLTHNVYRGRMVYWANFYEKLFNFREARYFDIKGEYTGLTSKAMSAPDGMIRIPLNEESSKGAGQIEEFLMQFNGEGIQHVAFLTDDLVKTWDALKKIGMRFMTAPPDEYYEMLEGRLPDHGEPVDQLQARGILLDGSSVEGDKRLLLQIFSETLMGPVFFEFIQRKGDDGFGPDSFKVLFESVERDQVRRGVLTAD , what Residual turnover is on record?
Result: 0.057
